- System: A549/ATCC NSCLC
- Assay Protocol: NCI-60 one-dose screen, 48 h (100 = growth as untreated, 0 = no growth, -100 = all killed)
- Condition Details: 10 µM
Compounds without any hit were thinned out: in the full panel of roughly 83,000, 20% have a hit.

{"columns": ["Molecule", "growth [%]"],
 "data": [
  ["Cc1ccc(/C(C#N)=C/c2ccc3c(c2)OCO3)cc1", 57.5],
  ["COc1cc2c(cc1OC)[C@H](C(=O)O)[C@@H](c1ccc(OC(C)C)c(OC)c1)N(C)C2=O", 106],
  ["Cc1ccc(Cl)cc1N1C(=O)CC(Sc2ccccc2N)C1=O (stereo not drawn)", 88.6],
  ["NC(CSC(c1ccccc1)(c1ccccc1)c1ccccc1)C(=O)O (stereo not drawn)", 25.7],
  ["COC(=O)c1ccccc1Br", 103],
  ["c1c(-c2cc(C3CC3)[nH]n2)n[nH]c1C1CC1", 88.8],
  ["O=C1Cc2ccccc2C(=O)O1", 110],
  ["O=C1C=C(O)C(=O)C=C1O", 112],
  ["Cc1cccc(CO)c1", 102],
  ["Cc1cc(C)cc(NCCC#N)c1", 151],
  ["CC(=O)OCC1=CC2OC(=O)C3=COC(OC4OC(CO)C(O)C(O)C4O)C1C32 (stereo not drawn)", 138],
  ["CC1(c2ccccc2)NC(=O)NC1=O (stereo not drawn)", 96.5],
  ["CC(=O)OCCO", 99.2]
]}

###

- Tested on: SR leukemia
- Assay Protocol: NCI-60 one-dose screen, 48 h (100 = growth as untreated, 0 = no growth, -100 = all killed)
- Condition Details: 10 µM
The panel holds about 83,000 compounds, 20% with a hit somewhere; the sample as a whole holds those more often. The source made the active and inactive calls. How the source made its calls: active means growth percent below 10; inactive means the rest.

{"columns": ["Compound", "growth"],
 "data": [
  ["CCCCNC1(C#N)CCN(Cc2ccccc2)CC1", "115% (inactive)"],
  ["Cc1cccc(C(=O)N(C(C)C)C(C)C)c1", "110% (inactive)"],
  ["O=C1C[C@H](c2ccccc2)[C@H](c2ccccc2)C1", "99.2% (inactive)"],
  ["CN(C)C(C)(C)CC(C)(C)C", "93.5% (inactive)"],
  ["O=C(O)c1ccccc1NCc1ccco1", "87.8% (inactive)"],
  ["CC(=O)NC(N)=S", "90.4% (inactive)"],
  ["CC(=O)c1ccc(C(C)(C)C)cc1", "90.6% (inactive)"],
  ["Cc1cc2ccccc2c(O)c1C#N", "108% (inactive)"],
  ["CCCCCCCCCCC(C)Br (centres undefined)", "93.8% (inactive)"],
  ["Cc1cc(C)c(CC(=O)O)c(C)c1", "98.5% (inactive)"],
  ["O=C(c1ccc(Cl)cc1)c1ccccc1Cl", "95.9% (inactive)"],
  ["C=CCNC(=O)c1ccc(OC)cc1", "110% (inactive)"],
  ["OCC1OC(OC2C(O)C(CO)OC2(CO)OC2OC(CO)C(O)C(O)C2O)C(O)C(O)C1O (centres undefined)", "106% (inactive)"],
  ["O=C(/C=C/C(=O)c1ccccc1)c1ccccc1", "71.3% (inactive)"]
]}

###

- Tested on: KM12 colon
- Assay Protocol: NCI-60 one-dose screen, 48 h (100 = growth as untreated, 0 = no growth, -100 = all killed)
- Condition Details: 10 µM
The panel holds about 83,000 compounds, 20% with a hit somewhere; the sample as a whole holds those more often.
Reported Endpoint: growth (%)

{"columns": ["Molecule", "Unit Descriptor", "Reported Measurement"],
 "data": [
  ["CC1(C)N=C(N)N=C(N)N1c1ccc(Cl)cc1", "%", 50.1],
  ["COC(=O)C(C)Oc1ccc(OC#N)cc1 (configuration not stated)", "%", 99.8],
  ["CCOC(=O)c1ccc(Nc2sc(C(=O)c3cccc([N+](=O)[O-])c3)c(N)c2C#N)cc1", "%", 17.5],
  ["CCOC(=O)c1cc2cccc(OC)c2oc1=O", "%", 113],
  ["O=c1cc(-c2ccccc2)[nH]c(=S)[nH]1", "%", 96.7],
  ["O=C(CC(=O)c1ccccc1O)c1ccccc1", "%", 92.8],
  ["O=C(O)CCCCNC(=O)c1ccccc1", "%", 99],
  ["COc1cc(C2c3cc4c(cc3C3OC(=O)C2C3CO)OCO4)cc(OC)c1OC (configuration not stated)", "%", 1.84],
  ["O=[N+]([O-])c1cccc(C(F)(F)F)c1", "%", 119],
  ["O=C(O)C(O)c1ccccc1 (configuration not stated)", "%", 99.3],
  ["O=C1C=CC2=C3c4cc(O)c(O)cc4CC3(O)COC2=C1O (configuration not stated)", "%", 114],
  ["CCCC(=O)c1cc(C)ccc1OC", "%", 110],
  ["O=C(CS)Nc1ccc2ccccc2c1", "%", 102],
  ["O=C1c2ccccc2C(=O)c2c1ccc(C(=O)O)c2[N+](=O)[O-]", "%", 101],
  ["Cc1ccc(Cl)cc1N1C(=O)CC(Sc2ccccc2N)C1=O (configuration not stated)", "%", 112],
  ["Cc1cc(=O)cc(C)n1-c1ccccc1", "%", 104],
  ["CC(=O)c1sc2c(c1OC(=O)c1ccc(Cl)cc1Cl)c(=O)n(-c1ccccc1)c(=S)n2-c1ccccc1", "%", -0.943],
  ["CCOC(=O)C(C#N)Cc1ccccc1 (configuration not stated)", "%", 133],
  ["CC(=O)OCC(=O)[C@@]1(O)CC[C@H]2[C@@H]3CC[C@@H]4C[C@H](O)CC[C@]4(C)[C@H]3C(=O)C[C@@]21C", "%", 112],
  ["C#C[C@H]1CCCCCC1O (some centres not stated)", "%", 107],
  ["C#CC(C(C)C)N(CCO)CCCC (configuration not stated)", "%", 109],
  ["COC1=CC(=O)c2nc(Cl)ccc2C1=O", "%", 91.3],
  ["NCCCN", "%", 107],
  ["NC(=O)N/N=C\\c1ccco1", "%", 113],
  ["CCOC(=O)c1cc(/C=C/c2cccc(Cl)c2)on1", "%", 57.4],
  ["N#Cc1ccc(NC(=O)Nc2cccc(C#N)c2)cc1", "%", 102],
  ["COc1ccc(C2OC(N)=C(O)C2=O)cc1OC (configuration not stated)", "%", 109]
]}
